target: Muscarinic acetylcholine receptor; experiment: In vitro binding affinity for muscarinic receptor by displacing [3H]quinuclidinyl benzilate binding on rat brain homogenate; type: tissue-based

# compound, unitAnnotation, Ki
records = [
    ("CCn1ncc(C2=CCCNC2)n1", "nM", 290),
    ("CCCn1ncc(C2=CCCNC2)n1", "nM", 270),
    ("CCn1ncc(C2CCCNC2)n1 (racemic)", "nM", 530),
    ("CCCCn1ncc(C2=CCCNC2)n1", "nM", 250),
    ("CCn1nnc(C2=CCCN(C)C2)n1", "nM", 430),
    ("CCCCCn1nnc(C2=CCCN(C)C2)n1", "nM", 130),
    ("CCCCn1nnc(C2=CCCN(C)C2)n1", "nM", 81),
    ("CN1CCC=C(c2cnn(C)n2)C1", "nM", 280),
    ("CCCn1nnc(C2=CCCN(C)C2)n1", "nM", 100),
    ("CN1CCC=C(c2nnn(C)n2)C1", "nM", 790),
    ("C=Cn1nnc(C2=CCCN(C)C2)n1", "nM", 230),
]

----------
target: Muscarinic acetylcholine receptor M2 (Mus musculus) (UniProt Q9ERZ4); test: In vivo determination of peripheral M2 receptor mediated tremor, cholinergic side effect
quantity: ED50

# compound, experimentalResult
data = [
    ("C#CCn1ncc(C2CCCNC2)n1 (single isomer, unassigned; (+))", "32 µmol/kg"),
    ("C=CCn1ncc(C2CCCNC2)n1 (racemic)", "> 350 µmol/kg"),
    ("C=CCn1ncc(C2CCCNC2)n1 (single isomer, unassigned; (+))", "> 260 µmol/kg"),
    ("C[N+](C)(C)CC#CCOC(=O)Nc1cccc(Cl)c1.[Cl-]", "> 63 µmol/kg"),
    ("CCn1nnc(C2=CCCN(C)C2)n1 [ALVAMELINE]", "> 120 µmol/kg"),
    ("C=CCn1ncc(C2CCCNC2)n1 (stereo in doubt; (-)-15b)", "> 130 µmol/kg"),
    ("C#CCn1ncc(C2CCCNC2)n1 (racemic)", "54 µmol/kg"),
    ("C#CCn1ncc(C2CCCNC2)n1 (stereo in doubt; (-)-15c)", "41 µmol/kg"),
]

----------
Molecular target: Muscarinic acetylcholine receptor M1 (Rattus norvegicus, UniProt P08482)
Sequence (P08482 whole entry): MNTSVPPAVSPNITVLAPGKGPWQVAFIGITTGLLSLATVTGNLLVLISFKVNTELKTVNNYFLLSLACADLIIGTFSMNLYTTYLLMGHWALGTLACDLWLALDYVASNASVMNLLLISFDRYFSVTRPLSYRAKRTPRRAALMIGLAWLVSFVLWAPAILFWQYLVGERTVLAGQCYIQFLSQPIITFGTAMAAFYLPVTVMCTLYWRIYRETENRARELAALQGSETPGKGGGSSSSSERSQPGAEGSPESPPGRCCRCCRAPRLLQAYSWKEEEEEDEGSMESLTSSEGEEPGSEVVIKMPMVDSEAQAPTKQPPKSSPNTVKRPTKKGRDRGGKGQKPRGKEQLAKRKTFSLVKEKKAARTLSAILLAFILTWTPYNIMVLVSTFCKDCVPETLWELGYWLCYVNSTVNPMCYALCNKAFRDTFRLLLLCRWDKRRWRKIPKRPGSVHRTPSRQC
Assay: M1 agonist activity estimated by rat superior cervical ganglion depolarization
Type: functional, tissue-based

# molecule, EC50
measured = [
    ("C=CCn1ncc(C2CCCNC2)n1 (racemic)", "> 2800 nM"),
    ("C=CCn1ncc(C2CCCNC2)n1 (single isomer, unassigned; (+))", "> 3400 nM"),
    ("C=CCn1ncc(C2CCCNC2)n1 (stereo in doubt; (-)-15b)", "> 2500 nM"),
    ("CCn1nnc(C2=CCCN(C)C2)n1", "≥ 2000 nM"),
    ("CCN1C(=O)CC2(CCN(C)CC2)C1=O", "≥ 1100 nM"),
    ("CN1CCC=C(c2cnn(C)n2)C1", "≥ 430 nM"),
    ("C[N+](C)(C)CC#CCOC(=O)Nc1cccc(Cl)c1.[Cl-]", "≥ 3900 nM"),
    ("CCn1ncc(C2=CCCNC2)n1", "≥ 650 nM"),
    ("CCn1ncc(C2=CCCN(C)C2)n1", "> 1200 nM"),
]
